This collection of values is drawn from patent US20130190223A1.

Listed here are compounds together with their documented CYP-D Inhibition (% Potency Vs CsA).
- SYSTEM UNDER TEST: CyP-D (Rattus norvegicus)
- Construct: Mitochondria were isolated from fresh rat liver; from tissue; host or cells: rat liver mitochondria
- Sequence (P29117 30-206): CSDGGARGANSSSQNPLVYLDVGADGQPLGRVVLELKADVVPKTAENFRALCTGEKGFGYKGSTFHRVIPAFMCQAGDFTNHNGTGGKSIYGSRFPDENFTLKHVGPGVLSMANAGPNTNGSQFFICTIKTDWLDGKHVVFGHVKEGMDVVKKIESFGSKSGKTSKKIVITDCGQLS
- Assay type: biochemical
- MEASUREMENT CONTEXT: mitochondria isolated from rat liver, 190 μM calcium, swelling as decline in A540
I only need the number, in %, no unit after it.

Example results:
- COMPOUND: "CCC1NC(=O)C(C(O)C(C)CC=CCCCCCCC(=O)N(C)C)N(C)C(=O)C(C(C)C)N(C)C(=O)C(CC(C)C)N(C)C(=O)C(CC(C)C)N(C)C(=O)C(C)NC(=O)C(C)NC(=O)C(CC(C)C)N(C)C(=O)C(C(C)C)NC(=O)C(CC(C)C)N(C)C(=O)CN(C)C1=O (stereo not shown)"
  UOM: "%"
  CYP-D Inhibition (% Potency Vs CsA): 63.4
- COMPOUND: "CCC1NC(=O)C(C(O)C(C)CC=CCCC(=O)N(C)C)N(C)C(=O)C(C(C)C)N(C)C(=O)C(CC(C)C)N(C)C(=O)C(CC(C)C)N(C)C(=O)C(C)NC(=O)C(C)NC(=O)C(CC(C)C)N(C)C(=O)C(C(C)C)NC(=O)C(CC(C)C)N(C)C(=O)CN(C)C1=O (stereo not shown)"
  UOM: "%"
  CYP-D Inhibition (% Potency Vs CsA): 142.3
- COMPOUND: "CCCC=CCC(C)C(O)C1C(=O)NC(CC)C(=O)N(C)CC(=O)N(C)C(CC(C)C)C(=O)NC(C(C)C)C(=O)N(C)C(CC(C)C)C(=O)NC(C)C(=O)NC(C)C(=O)N(C)C(CC(C)C)C(=O)N(C)C(CC(C)C)C(=O)N(C)C(C(C)C)C(=O)N1C (stereo not shown)"
  UOM: "%"
  CYP-D Inhibition (% Potency Vs CsA): 58.4

For the next question, use this compound.
Give recorded CYP-D Inhibition (% Potency Vs CsA) with CyP-D (Rattus norvegicus) for the following compound: CCC1NC(=O)C(C(O)C(C)CCCCC(=O)N(C)C)N(C)C(=O)C(C(C)C)N(C)C(=O)C(CC(C)C)N(C)C(=O)C(CC(C)C)N(C)C(=O)C(C)NC(=O)C(C)NC(=O)C(CC(C)C)N(C)C(=O)C(C(C)C)NC(=O)C(CC(C)C)N(C)C(=O)CN(C)C1=O (stereo not shown) 122.0

* * *

- SYSTEM UNDER TEST: CyP-D (Rattus norvegicus)
- Construct: Mitochondria were isolated from fresh rat liver; from tissue; host or cells: rat liver mitochondria
- Format: biochemical
- MEASUREMENT CONTEXT: mitochondria isolated from rat liver, 190 μM calcium, swelling as decline in A540
RECORDED METRIC: CYP-D Inhibition (% Potency Vs CsA) (%)
Answer in %, number only, no unit symbol.

Some solved entries appear below for comparison.
- COMPOUND: "CCC1NC(=O)C(C(O)C(C)CCCCC(N)=O)N(C)C(=O)C(C(C)C)N(C)C(=O)C(CC(C)C)N(C)C(=O)C(CC(C)C)N(C)C(=O)C(C)NC(=O)C(C)NC(=O)C(CC(C)C)N(C)C(=O)C(C(C)C)NC(=O)C(CC(C)C)N(C)C(=O)CN(C)C1=O (stereo not shown)"
  RECORDED METRIC: "CYP-D Inhibition (% Potency Vs CsA)"
  UOM: "%"
  VALUE: 114.7
- COMPOUND: "CCCNC(=O)CCC=CCC(C)C(O)C1C(=O)NC(CC)C(=O)N(C)CC(=O)N(C)C(CC(C)C)C(=O)NC(C(C)C)C(=O)N(C)C(CC(C)C)C(=O)NC(C)C(=O)NC(C)C(=O)N(C)C(CC(C)C)C(=O)N(C)C(CC(C)C)C(=O)N(C)C(C(C)C)C(=O)N1C (stereo not shown)"
  RECORDED METRIC: "CYP-D Inhibition (% Potency Vs CsA)"
  UOM: "%"
  VALUE: 71.3

Any idea what CYP-D Inhibition (% Potency Vs CsA) came out for CCC1NC(=O)C(C(O)C(C)CCCCCCCCCNC(=O)OC(C)(C)C)N(C)C(=O)C(C(C)C)N(C)C(=O)C(CC(C)C)N(C)C(=O)C(CC(C)C)N(C)C(=O)C(C)NC(=O)C(C)NC(=O)C(CC(C)C)N(C)C(=O)C(C(C)C)NC(=O)C(CC(C)C)N(C)C(=O)CN(C)C1=O (stereo not shown) on CyP-D (Rattus norvegicus)? 42.4

So what CYP-D Inhibition (% Potency Vs CsA) did CCOC(=O)CCCCCCC=CCC(C)C(O)C1C(=O)NC(CC)C(=O)N(C)CC(=O)N(C)C(CC(C)C)C(=O)NC(C(C)C)C(=O)N(C)C(CC(C)C)C(=O)NC(C)C(=O)NC(C)C(=O)N(C)C(CC(C)C)C(=O)N(C)C(CC(C)C)C(=O)N(C)C(C(C)C)C(=O)N1C (stereo not shown) get with CyP-D (Rattus norvegicus)? 33.2
